Values compiled from the Immune Epitope Database (IEDB).

# test-target: HLA-A*32:01
# test-method-notes: IEDB peptide-MHC binding, purified MHC/competitive/radioactivity; filed as Kd, often an IC50 or EC50 that approximates it; bounds were set here for any values at or beyond the usual limits of such assays
# experimental-context: source organism: Dengue virus 4 Philippines/H241/1956
assay-readout: Kd (nM)
Lab book: enter the figure in nM, no units written.

Look up Kd with HLA-A*32:01 for this sequence: MFGGVSWMVR
952

---

# test-target: HLA-B*15:42
# test-method-notes: IEDB peptide-MHC binding, purified MHC/competitive/fluorescence; filed as Kd, often an IC50 or EC50 that approximates it; bounds were set here for any values at or beyond the usual limits of such assays
# experimental-context: source organism: Choclo virus
assay-readout: Kd

I am curious: what Kd value has been reported for LPSSSSYSY ?
≥ 5 µM

---

# test-target: HLA-B*40:01
# test-method-notes: IEDB peptide-MHC binding, purified MHC/direct/fluorescence; filed as Kd, often an IC50 or EC50 that approximates it; bounds were set here for any values at or beyond the usual limits of such assays
# experimental-context: source organism: Influenza A virus (A/Duck/Shantou/2134/00(H9N2))
pKd: −log10 of the molar value.
assay-readout: pKd

# query: pKd of entry ASRGLWDSF
≤ 4.70

---

# test-target: HLA-C*07:02
# test-method-notes: IEDB peptide-MHC binding, purified MHC/direct/fluorescence; filed as Kd, often an IC50 or EC50 that approximates it; bounds were set here for any values at or beyond the usual limits of such assays
# experimental-context: source organism: Homo sapiens
pKd: −log10 of the molar value.
assay-readout: pKd

Consider the sequence MPMKGRFPI and give its measured pKd.
≤ 4.70

---

# test-target: HLA-B*40:01
# test-method-notes: IEDB peptide-MHC binding, purified MHC/competitive/radioactivity; filed as Kd, often an IC50 or EC50 that approximates it; bounds were set here for any values at or beyond the usual limits of such assays
# experimental-context: source organism: Mammarenavirus guanaritoense
assay-readout: pKd
In simple prose, pKd is minus the logarithm base ten of a concentration in moles per litre.

Which pKd is reported for this sequence? FEEALNVALA
5.25

---

# test-target: HLA-A*03:01
# test-method-notes: IEDB peptide-MHC binding, purified MHC/direct/fluorescence; filed as Kd, often an IC50 or EC50 that approximates it; bounds were set here for any values at or beyond the usual limits of such assays
# experimental-context: source organism: Brucella melitensis
Recorded Kd values for a group of sequences are listed next.

A selection of reference data follows.
{"sequence-text": "RLWNGRRCR", "test-target": "HLA-A*03:01", "Kd": "634 nM"}
{"sequence-text": "RVRIPDVAR", "test-target": "HLA-A*03:01", "Kd": "293 nM"}

Turning now to a further sequence:
For RVISDGYFK , what is its reported Kd?
395 nM

---

# test-target: HLA-A*03:01
# test-method-notes: IEDB peptide-MHC binding, purified MHC/competitive/radioactivity; filed as Kd, often an IC50 or EC50 that approximates it; bounds were set here for any values at or beyond the usual limits of such assays
# experimental-context: source organism: Mammarenavirus juninense
assay-readout: pKd
When answering, recall that pKd equals minus log10 of the concentration in mol/L, and write that number alone.

Consider the sequence shown here: ANKQYIHCFR What is its recorded pKd?
4.75

---

# test-target: HLA-A*03:01
# test-method-notes: IEDB peptide-MHC binding, purified MHC/direct/fluorescence; filed as Kd, often an IC50 or EC50 that approximates it; bounds were set here for any values at or beyond the usual limits of such assays
# experimental-context: source organism: Orthohantavirus hantanense
pKd: −log10 of the molar value.
assay-readout: pKd

Item LVRDITESL has what recorded pKd?
≤ 4.70

---

# test-target: HLA-A*69:01
# test-method-notes: IEDB peptide-MHC binding, purified MHC/competitive/fluorescence; filed as Kd, often an IC50 or EC50 that approximates it; bounds were set here for any values at or beyond the usual limits of such assays
# experimental-context: source organism: Human immunodeficiency virus 1
assay-readout: Kd (µM)
The reply should be a number in µM, with the unit left off.

# input sequence: KSLFNTVATLY ; wanted: its Kd
2.84

---

# test-target: HLA-B*58:01
# test-method-notes: IEDB peptide-MHC binding, purified MHC/competitive/radioactivity; filed as Kd, often an IC50 or EC50 that approximates it; bounds were set here for any values at or beyond the usual limits of such assays
# experimental-context: source organism: Dengue virus 1 Singapore/S275/1990
// values below are reported Kd
# value in nM; strip the unit string

{"sequence-text": "RLSAAIGKAW", "Kd / nM": 6.2}

Next sequence, Kd to be filled in.
Lab note: need Kd with HLA-B*58:01 for entry KTSVGVNMCT , please look it up.
1810

---

# test-target: HLA-B*46:01
# test-method-notes: IEDB peptide-MHC binding, purified MHC/competitive/fluorescence; filed as Kd, often an IC50 or EC50 that approximates it; bounds were set here for any values at or beyond the usual limits of such assays
# experimental-context: source organism: Choclo virus
pKd: −log10 of the molar value.
assay-readout: pKd

Which measured pKd value corresponds to LPSSSSYSY ?
≤ 4.70

---

# test-target: HLA-B*08:01
# test-method-notes: IEDB peptide-MHC binding, purified MHC/competitive/fluorescence; bounds were set here for any values at or beyond the usual limits of such assays
# experimental-context: source organism: Zaire ebolavirus
pIC50: −log10 of the molar value.
assay-readout: pIC50

{"sequence-text": "LHPLARTAK", "test-target": "HLA-B*08:01", "assay-readout": "pIC50", "measured": "≤ 3.56"}

// lookup pIC50 for EKVQRQIQV
≤ 3.74

pIC50 for EVNSFKAAL ?
≤ 4.07

Which pIC50 is reported for this sequence? VGHMMVIFR
≤ 3.73

# lookup: pIC50 of TAKVKNEVN
≤ 3.44

Which value of pIC50 has been reported for YQQLREAAT in the records?
≤ 3.74

---

# test-target: HLA-A*11:01
# test-method-notes: IEDB peptide-MHC binding, purified MHC/competitive/radioactivity; filed as Kd, often an IC50 or EC50 that approximates it; bounds were set here for any values at or beyond the usual limits of such assays
# experimental-context: source organism: Mammarenavirus guanaritoense
Property: Kd; scope: individual sequences

Check out these entries, answers already filled in.
{"sequence-text": "VCEEFFHQK", "Kd": "0.621 µM"}
{"sequence-text": "CCNWLDRCRH", "Kd": "≥ 69.7 µM"}

Shifting focus to the sequence that follows.
GET /values?readout=Kd&item= LCCSLDHSK
≥ 38.4 µM

---

# test-target: HLA-B*44:02
# test-method-notes: IEDB peptide-MHC binding, purified MHC/competitive/radioactivity; filed as Kd, often an IC50 or EC50 that approximates it; bounds were set here for any values at or beyond the usual limits of such assays
# experimental-context: source organism: Mammarenavirus juninense
pKd: −log10 of the molar value.
assay-readout: pKd

For LDLVLLNLL , what is its reported pKd?
≤ 4.11

---

# test-target: HLA-A*24:03
# test-method-notes: IEDB peptide-MHC binding, purified MHC/competitive/fluorescence; filed as Kd, often an IC50 or EC50 that approximates it; bounds were set here for any values at or beyond the usual limits of such assays
# experimental-context: source organism: Brucella abortus S19
pKd: −log10 of the molar value.
assay-readout: pKd

State the recorded pKd for this entry: KQWIVAGAI
≤ 4.70

---

# test-target: HLA-B*27:05
# test-method-notes: IEDB peptide-MHC binding, purified MHC/direct/fluorescence; filed as Kd, often an IC50 or EC50 that approximates it; bounds were set here for any values at or beyond the usual limits of such assays
# experimental-context: source organism: Bacillus anthracis
assay-readout: Kd

What measured Kd goes with YFENSDLNL ?
≥ 20 µM

---

Listing of entries alongside the reported pKd.
# test-target: HLA-A*29:02
# test-method-notes: IEDB peptide-MHC binding, purified MHC/competitive/radioactivity; filed as Kd, often an IC50 or EC50 that approximates it; bounds were set here for any values at or beyond the usual limits of such assays
# experimental-context: source organism: SARS coronavirus Tor2
Field pKd (float): negative decimal logarithm of the concentration in molar.

{"sequence-text": "VYSDVETPHL", "pKd": 6.23}
{"sequence-text": "ASFYYIWKSY", "pKd": 7.15}
{"sequence-text": "TVATSRTLSY", "pKd": 7.00}

Query the reported pKd for HLA-A*29:02; item: VYMPASWVM
4.83

Hello, I am looking for reported pKd with HLA-A*29:02 for EFSSNVANY . Could you help?
6.15

Param readout = pKd; param system = HLA-A*29:02; param query = STGNYNYKY ; response: value
7.43

Please state recorded pKd (tested on HLA-A*29:02) of ETPHLMGWDY
7.03

Form entry - test system: HLA-A*29:02; read-out: pKd; sequence: AMVRMYIFF
6.34

Lab note: need pKd for GTFLCANEY on HLA-A*29:02, anyone have it?
8.42

Requested read-out pKd, target or system HLA-A*29:02, entry VAEMDGIQY
7.23

# value lookup — system HLA-A*29:02, readout pKd, item IMLVYCFLGY
8.52

Could you share what pKd was measured for TTTIKPVSY , tested on HLA-A*29:02?
7.33

Fill in the recorded pKd for this sequence, with HLA-A*29:02 as test system: TPSGTWLTY
7.26

Field: pKd (HLA-A*29:02). Entry: CTFLLNKEMY
6.10

Which pKd is reported with HLA-A*29:02 for this entry: HTLSIHDGY ?
8.75

Item: EYPIIGDEL Test system: HLA-A*29:02 Read-out: pKd Value: ?
6.75

Which pKd is reported with HLA-A*29:02 for this entry: PVSAMVRMY ?
5.56
